Source listed as paper PMC11510329.

test: SRB cell cytotoxicity assay; type: cell-based, Homo sapiens; conditions: human, DU-145 prostate cancer cells; DU-145; Supplementary Figure S7; read-out: cytotoxic concentration in vitro (IC50)
Measured Parameter: IC50 (µM)
Only the number, expressed in µM, is required.

Enquiry: Data request, read-out IC50, for C/C=C/c1cc(OC)c2c(c1)[C@H](C)[C@@H](c1ccc(O)c(OC)c1)O2 [compound 1, licarin A]
Return: 100
